# protocol-description: BSK_4H_SRB: Viability Assessment in the BioMAP Diversity Plus: 4H Assay (AID 2283027);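 also: cells exposed to compound for 24 h before staining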
# condition-label: primary human endothelial cells (HUVEC)
Activity calls are given as the source filed them. The calls were made as follows: active = hit-call score of the fitted dose curve at least 0.9, where 1 is the maximum; inactive = score below 0.9.
The reply should name one outcome from True = active, False = inactive

Check out these entries, answers already filled in.
| compound | label |
| --- | --- |
| CCOc1cccc(-n2cc(C(=O)N3CCN(c4cc(C(=O)O)c5ccccc5c4)CC3)nc2-c2ccc(C)cc2)c1 | True |
| CC[C@H]1OC(=O)[C@H](C)[C@@H](O[C@H]2C[C@@](C)(OC)[C@@H](O)[C@H](C)O2)[C@H](C)[C@@H](O[C@@H]2O[C@H](C)C[C@H](N(C)C)[C@H]2O)[C@](C)(O)C[C@@H](C)C(=O)[C@H](C)[C@@H](O)[C@]1(C)O | False |
| CC(C)CCO | False |
| COc1cccc(-c2ccc(/C=C\CN3CCCCCC3)cc2Cl)c1 | True |

Below: the item to evaluate.
What outcome does the record of this test show for Cc1ccc(S(=O)(=O)O)cc1C ?
False

----------
# protocol-description: CCTE_Shafer_MEA_acute_burst_number: CCTE's Neural Acute Assay for Single-Electrode Bursts, Shafer Lab (AID 2284013)
Active and inactive are the calls of the source. How the source made its calls: active means hit-call score of the fitted dose curve at least 0.9, where 1 is the maximum; inactive means score below 0.9.
Your answer must be one of the following: active, inactive

| compound | label |
| --- | --- |
| O=C(O)c1cc(N=Nc2ccc(S(=O)(=O)Nc3ccccn3)cc2)ccc1O | active |
| CC(C)=CCCC(C)=CC=O | inactive |
| CCCCCCc1ccc(O)cc1O | active |

// outcome(item) with item = Cn1c(=O)c2c(ncn2C)n(C)c1=O
inactive

----------
# Read-out: Interferon-gamma inducible Protein 10 (IP10), CXCL10 (gene 3627)
# protocol-description: BSK_hDFCGF_IP10: BioMAP Diversity Plus: hDFCGF Assay for Interferon-gamma inducible Protein 10 (IP10) Biomarker Activity (AID 2283053)
# condition-label: primary human foreskin fibroblasts; actives raise or lower the signal
Active and inactive are the calls of the source. The calls were made as follows: active = hit-call score of the fitted dose curve at least 0.9, where 1 is the maximum; inactive = score below 0.9.
Thanks in advance; please answer with one of these: active, inactive

Record excerpt, results attached:
| molecule | label |
| --- | --- |
| CCOC(=O)COc1ccc2c(c1)CC(NCC(O)c1cccc(Cl)c1)CC2 (stereo not given) | active |
| CCCCCCCCCCCCc1ccccc1 | inactive |
| Nc1ccc(Nc2ccccc2)cc1 | inactive |
| COC(=O)c1c(Cl)c(Cl)c(C(=O)OC)c(Cl)c1Cl | inactive |

We now examine a further molecule.
# outcome recorded in this test, key = CC(=O)OCCC(C)C
inactive

----------
# Read-out: Urokinase-type plasminogen activator receptor (uPAR), PLAUR (gene 5329)
# protocol-description: BSK_4H_uPAR: BioMAP Diversity Plus: 4H Assay for Urokinase-type plasminogen activator receptor (uPAR) Biomarker Activity (AID 2283030)
# condition-label: primary human endothelial cells (HUVEC); actives raise or lower the signal
The source made the active and inactive calls. How the source made its calls: active means hit-call score of the fitted dose curve at least 0.9, where 1 is the maximum; inactive means score below 0.9.
Pick from active, inactive when you respond.

| molecule | label |
| --- | --- |
| CC[C@H]1OC(=O)[C@H](C)[C@@H](O[C@H]2C[C@@](C)(OC)[C@@H](O)[C@H](C)O2)[C@H](C)[C@@H](O[C@@H]2O[C@H](C)C[C@H](N(C)C)[C@H]2O)[C@](C)(O)C[C@@H](C)C(=O)[C@H](C)[C@@H](O)[C@]1(C)O | inactive |
| C=CC(=C)CCC=C(C)C | inactive |
| On1ccccc1=S | active |
| Cc1ccc(S(=O)(=O)O)cc1C | inactive |
| CCn1nc(Cc2ccccc2)cc1C1CCN(C[C@H]2C[C@H](N(C)[C@@H](C(=O)O)C(C)C)C[C@@H]2c2cccc(F)c2)CC1 | inactive |

Here's the next entry for you.
Recorded test outcome, item CCN(C(=O)c1cc(C)cc(OC[C@H](C)Nc2ccncc2)c1)C(C)C
inactive

----------
# Read-out: CYP2C8 (gene 1558)
# protocol-description: LTEA_HepaRG_CYP2C8: Life Technologies and Expression Analysis (LTEA) Assay for CYP2C8 using HepaRG (AID 2283483)
# condition-label: mRNA level, 48 h; actives raise or lower the signal
Calls of active or inactive are those of the source. How the source made its calls: active means hit-call score of the fitted dose curve at least 0.9, where 1 is the maximum; inactive means score below 0.9.
Result category, one only: active, inactive

| molecule | label |
| --- | --- |
| Cc1ccc(C)c(O)c1 | inactive |

I'd appreciate the recorded outcome for O=C1CCCCCN1 from this test.
inactive

// outcome(item) with item = CCCC(=O)OCC
inactive

Please share the test call associated with CC(C)CC(C)(O)C#CC(C)(O)CC(C)C (stereo not given) .
inactive

Returns: the outcome recorded for CC(C)CCO in this assay.
inactive

Any idea what this test logged for CC1(C)C(=O)N(Br)C(=O)N1Br ?
inactive

Answer briefly: the call reported for CCn1nc(Cc2ccccc2)cc1C1CCN(C[C@H]2C[C@H](N(C)[C@@H](C(=O)O)C(C)C)C[C@@H]2c2cccc(F)c2)CC1 in this assay.
active

Returns: the outcome recorded for C=CCCCCCCCCC(=O)O in this assay.
inactive

Just curious, what result did CC[C@H]1OC(=O)[C@H](C)[C@@H](O[C@H]2C[C@@](C)(OC)[C@@H](O)[C@H](C)O2)[C@H](C)[C@@H](O[C@@H]2O[C@H](C)C[C@H](N(C)C)[C@H]2O)[C@](C)(O)C[C@@H](C)C(=O)[C@H](C)[C@@H](O)[C@]1(C)O get here?
inactive

// outcome(item) with item = O=C(O)c1cc(N=Nc2ccc(S(=O)(=O)Nc3ccccn3)cc2)ccc1O
inactive

# lookup: test call for CC/C(=C\C(=N/O)C(N)=O)C(C)[N+](=O)[O-] (stereo not given)
inactive

----------
# protocol-description: APR_HepG2_StressKinase_24hr: Apredica 24-hour HepG2 Assay for Stress Kinase (AID 2282922)
# condition-label: HepG2 stress kinase (phospho-c-Jun) imaging, actives raise or lower the signal
# Method: APR_HepG2_24hr is a cell-based, multiplexed-readout assay that uses HepG2, a human liver cell line, with measurements taken at 24 hours after chemical dosing in a 384-well plate.APR_HepG2_StressKinase_24hr is one of 10 assay component(s) measured or calculated from the APR_HepG2_24hr assay. […] This assay endpoint, APR_HepG2_StressKinase_24hr, was analyzed with bidirectional fitting relative to DMSO as the negative control and baseline of activity. […]
Activity calls are given as the source filed them. Rule for the calls: active = hit-call score of the fitted dose curve at least 0.9, where 1 is the maximum; inactive = score below 0.9.
Respond only with the outcome that fits, drawn from active, inactive

Outcome logged for On1ccccc1=S in this assay:
inactive

Kindly provide the recorded test outcome for the following molecule: CC(=O)c1ccc2c(c1)[C@H](NC(=O)c1ccc(F)cc1)[C@@H](O)C(C)(C)O2
inactive

Test call, this molecule: O=c1n(CC2CO2)c(=O)n(CC2CO2)c(=O)n1CC1CO1 (centres undefined)
active

What was the test verdict on C=CC(=C)CCC=C(C)C ?
inactive

Given CNCc1ccc(NC(=O)c2c[nH]c3c2C(=O)CCC3)cc1 , state the outcome it received in this test.
inactive

For this molecule, state the assay outcome: O=C(O)c1cccc(N(Cc2cccnc2)c2ccc(OC(F)F)c(OC(F)F)c2)c1
inactive

Test call for this molecule, please: Cc1c(-c2cccnc2)c2ccccc2n1CCCCC(=O)O
inactive

Check the results log: what was the call for CCc1cc(SCc2sc(-c3ccc(C(F)(F)F)cc3)nc2CN2CCN(c3ccc(OC)cc3)CC2)ccc1OCC(=O)O ?
inactive

What call does the record list for CCCCCCc1ccc(O)cc1O ?
active

Could you please tell me the result logged for Cc1ccc(N)cc1O in this assay?
inactive

Dear colleague, could you share the recorded outcome for O=C(CCCCCCCCc1cccnc1)N1CCC(C=C(c2ccccc2)c2ccccc2)CC1 when you have a moment?
inactive

Called result for CCOCCOCCOCCO
inactive

Can you look up the reported call for O=C(O)c1cccc(Oc2ccccc2)c1 for me?
inactive

Test call, this molecule: O=C1CCCCCN1
inactive

Called result for CC(C)c1cccc(C(C)C)c1N1C(=O)c2ccc(O)cc2C1=O
active

Lab log entry: CC(=O)OC[C@H]1O[C@@](COC(C)=O)(O[C@H]2O[C@H](COC(C)=O)[C@@H](OC(C)=O)[C@H](OC(C)=O)[C@H]2OC(C)=O)[C@@H](OC(C)=O)[C@@H]1OC(C)=O — outcome as called in the assay?
inactive

# lookup: test call for CC(O)CN(CCN(CC(C)O)CC(C)O)CC(C)O (centres undefined)
inactive

Assay result, entry CC(C)(O)c1coc(S(=O)(=O)NC(=O)Nc2c3c(cc4c2CCC4)CCC3)c1 — outcome?
inactive

Dear all, I need the recorded test outcome for Oc1ccc2c(c1)-c1ccccc1C2 , thank you.
inactive

----------
# protocol-description: APR_HepG2_MitoticArrest_72hr: Apredica 72-hour HepG2 Assay for Mitotic Arrest (AID 2282918)
# condition-label: high-content imaging, actives raise or lower the signal
Calls of active or inactive are those of the source. How the source made its calls: active means hit-call score of the fitted dose curve at least 0.9, where 1 is the maximum; inactive means score below 0.9.
Mark one answer only. Choices: active, inactive

Use the examples below as a reference point.
| compound | label |
| --- | --- |
| COc1ccc2sc(C(=O)Nc3nnn[nH]3)c(OC(C)C)c2c1 | inactive |
| CNS(=O)(=O)c1cc(C(=O)N2CCC(CCN3C4CCC3CC(n3c(C)nc5ccccc53)C4)(c3cccc(F)c3)CC2)c(Cl)cc1F (stereo unspecified) | active |
| O=C(O)c1cccc(Oc2ccccc2)c1 | inactive |
| COc1ccc(-n2nc(C(F)F)cc2-c2ccc(S(C)=O)cc2)cc1 (stereo unspecified) | inactive |
| COCCOc1cc2cc(C(=O)NC3CCN(C(C)C)CC3)n(CC(=O)Nc3ccc(Cl)cn3)c2cn1 | active |
| Oc1ccc2c(c1)-c1ccccc1C2 | active |
| CN(C)c1ccc(Cc2ccc(N(C)C)cc2)cc1 | active |
| CCOC(=O)CC(CC(=O)OCC)(OC(C)=O)C(=O)OCC | inactive |

Just curious, what result did O=C(CCCCCCCCc1cccnc1)N1CCC(C=C(c2ccccc2)c2ccccc2)CC1 get here?
inactive

What did the test return for CCn1nc(Cc2ccccc2)cc1C1CCN(C[C@H]2C[C@H](N(C)[C@@H](C(=O)O)C(C)C)C[C@@H]2c2cccc(F)c2)CC1 ?
active

Hi team, can someone confirm the assay call for O=C1CCCCCN1 ?
inactive

Dear colleague, could you share the recorded outcome for CC[C@H]1OC(=O)[C@H](C)[C@@H](O[C@H]2C[C@@](C)(OC)[C@@H](O)[C@H](C)O2)[C@H](C)[C@@H](O[C@@H]2O[C@H](C)C[C@H](N(C)C)[C@H]2O)[C@](C)(O)C[C@@H](C)C(=O)[C@H](C)[C@@H](O)[C@]1(C)O when you have a moment?
inactive

Just curious, what result did CC(C)=CCCC(C)=CC=O get here?
inactive

Test call for this compound, please: CC(C)CC(C)(O)C#CC(C)(O)CC(C)C (stereo unspecified)
inactive

Lab log entry: CC[C@H]1CC[C@H](NCc2cc3c(cc2OC)[C@H]2C[C@H]2C(=O)N3C)[C@H](c2ccccc2)N1 — outcome as called in the assay?
inactive

Called result for CC(C)=CCC/C(C)=C/CO
inactive

Which outcome did this test record for the compound CCCC(=O)OCC ?
inactive

Which outcome was entered for the compound O=C(O)CC(O)C(=O)O (stereo unspecified) in this test?
inactive

Which result was noted for this compound in the test: C[C@](N)(Cc1ccc(O)c(O)c1)C(=O)O
inactive

Recorded test outcome, item Cc1ccc(N)cc1O
inactive

In this assay, the call recorded for COC(=O)c1c(Cl)c(Cl)c(C(=O)OC)c(Cl)c1Cl was what?
inactive

Write down the call the test reported for this compound. Item: CC1(C)C(=O)N(Br)C(=O)N1Br
inactive

# outcome recorded in this test, key = O=C(O)CCN(C1(C(=O)NO)CCCC1)S(=O)(=O)c1ccc(Oc2ccc(F)cc2)cc1
inactive

Recorded test outcome, item COC(=O)c1ccccc1O
inactive

Write down the call the test reported for this compound. Item: NC(=O)NO
inactive

I would be grateful if you could indicate the recorded call for Cc1[nH]cnc1C[C@H]1CCc2c(C)c3ccccc3n2C1=O .
active

What did the test return for CCCCC(CC)COC(=O)c1ccc(C(=O)OCC(CC)CCCC)cc1 (stereo unspecified) ?
inactive

Dear colleague, could you share the recorded outcome for CC(=O)c1ccc2c(c1)[C@H](NC(=O)c1ccc(F)cc1)[C@@H](O)C(C)(C)O2 when you have a moment?
inactive
